- System: SK-MEL-5
- assay summary: NCI tumour cell line growth inhibition, 48 h
Active and inactive are the calls of the source. Cut-off read from the data, not from the text of the source: active = GI50 up to about 1.1 µM and inactive = higher.
quantity: GI50

### Prompt Which GI50 reading was recorded for the compound CCC1(c2ccc(OC)c(OC)c2)CCN(S(=O)(=O)c2ccc(C)cc2)C1 (stereo not drawn) ?
### Response 33.7 µM (inactive)

### Prompt Consider the compound shown here: CNC(=O)CN(CC(=O)NC)C(=O)NC What is its recorded GI50?
### Response > 100 µM (inactive)

### Prompt Fill in: GI50 of N/N=C1\C(OC(=O)Nc2ccccc2)=Nc2ccccc21 is ___
### Response 14.2 µM (inactive)

### Prompt Reported GI50 for COc1cccc2c1C(=O)C(=O)c1c-2oc(=O)c2cc(C)cc(OC)c12 : what is it?
### Response 17 µM (inactive)

### Prompt Give the measured GI50 of Cc1ccc(C2(N3CCOCC3)OC(C)(C)c3cccc4cccc2c34)cc1 (stereo not drawn) .
### Response 18.6 µM (inactive)

### Prompt Entry under review: Cc1cc(C)c(C2CC(O)C(CO)O2)cc1C (stereo not drawn) . Reported GI50?
### Response > 100 µM (inactive)

### Prompt For COc1ncc(C#CC(=O)c2ccccc2)c(OC)n1 , what is its reported GI50?
### Response 2.09 µM (inactive)

### Prompt Fill blank: measured GI50 of the compound O=c1[nH]c2ccc(Cl)cc2o1 is ____.
### Response > 100 µM (inactive)

### Prompt Any idea what GI50 was measured for CSc1nc(C#N)c(N)n1C ?
### Response > 100 µM (inactive)

### Prompt Look up GI50: COC(=O)C12CCCN1CCC2
### Response > 100 µM (inactive)

### Prompt GI50 lookup needed for Cc1cc2c(cc1Br)C1(C)CCC(C)C1(C)O2 (stereo not drawn) , thanks.
### Response 29.1 µM (inactive)

### Prompt Requested read-out: GI50. Entry: Cc1ccc2c(c1)C=CC(C#N)N2C(=O)Oc1ccccc1 (stereo not drawn)
### Response 24.3 µM (inactive)

### Prompt // returns reported GI50 for input COC(=O)c1cc(O)ccc1NC(=O)c1ccc(O)cc1
### Response > 100 µM (inactive)
